System: zebrafish
Details: 2 μM, 3 dpf
readout_label: Dead/Abnormal zebrafish / total

Dead/Abnormal zebrafish / total reading for "O=c1c(O)c(-c2ccc(O)cc2)oc2cc(O)cc(O)c12" : 0/18

Dead/Abnormal zebrafish / total reading for CCC1(c2ccccc2)C(=O)NC(=O)NC1=O [Phenobarbital sodium] : 1/18

Dead/Abnormal zebrafish / total reading for C[C@@H]1C[C@@H]([C@H](O)CC2CC(=O)NC(=O)C2)C(=O)[C@@H](C)C1 [Cycloheximide] : 0/18

Dead/Abnormal zebrafish / total reading for O=C1C2(Cl)C3(Cl)C4(Cl)C(Cl)(Cl)C5(Cl)C3(Cl)C1(Cl)C5(Cl)C24Cl (centres unmarked) : 0/18

Dead/Abnormal zebrafish / total reading for "C[C@]12C[C@H](O)[C@H]3[C@@H](CCC4=CC(=O)CC[C@@]43C)[C@@H]1CC[C@@H]2C(=O)CO" : 0/18
